Data origin, for the record: paper PMC6150173

Give measured Hemolysis (%) at 50 µM for each item. Keep answers brief.
# Tested on: erythrocyte suspensions of human blood
# Assay method text: Hemolytic activity, hemoglobin release
# Format: cell-based
# Run conditions: peptide 50 μM (table prints 50 µM); human blood erythrocytes 5% v/v; absorbance 540 nm; percentage compared to melittin; three replicates
Peptide text beside a SMILES is read from it.
Remember to put the unit after the number in your answer.

## Input Give the measured Hemolysis (%) at 50 µM of CC(C)C[C@@H]1NC(=O)[C@H](CCCCN)NC(=O)[C@H](Cc2c[nH]c3ccccc23)NC(=O)[C@H](CC(C)C)NC(=O)[C@H](CC(C)C)NC(=O)[C@H](CCCCN)NC(=O)[C@H](CCCCN)NC(=O)[C@H](CCCCN)NC(=O)[C@H](CCC(N)=O)NC(=O)[C@H](CCCCN)NC1=O [BPC110W, c(KKKLLWKLKQ)] (cyclo(KKKLLWKLKQ)) .
## Output 3%

## Input Entry CC(C)C[C@@H]1NC(=O)[C@H](CCC(N)=O)NC(=O)[C@H](CCCCN)NC(=O)[C@H](CCCCN)NC(=O)[C@H](CC(C)C)NC(=O)[C@H](Cc2c[nH]c3ccccc23)NC(=O)[C@H](CCCCN)NC(=O)[C@H](CC(C)C)NC(=O)[C@H](CCCCN)NC(=O)[C@H](CCCCN)NC1=O [BPC140W, c(LKKLKWLKKQ)] (cyclo(KKLKWLKKQL)) has what Hemolysis (%) at 50 µM?
## Output 31%

## Input Fill blank: measured Hemolysis (%) at 50 µM of the compound CC(C)C[C@@H]1NC(=O)[C@H](CCCCN)NC(=O)[C@H](CCCCN)NC(=O)[C@H](Cc2c[nH]c3ccccc23)NC(=O)[C@H](CC(C)C)NC(=O)[C@H](CCCCN)NC(=O)[C@H](CC(C)C)NC(=O)[C@H](CCCCN)NC(=O)[C@H](CCCCN)NC(=O)[C@H](CCC(N)=O)NC1=O [BPC082W, c(KKLKLWKKLQ)] (cyclo(KKLKLWKKLQ)) is ____.
## Output 26%

## Input Look at this compound and give its reported Hemolysis (%) at 50 µM. CC(C)C[C@@H]1NC(=O)[C@H](CCCCN)NC(=O)[C@H](CCC(N)=O)NC(=O)[C@H](CCCCN)NC(=O)[C@H](CCCCN)NC(=O)[C@H](CCCCN)NC(=O)[C@H](Cc2c[nH]c3ccccc23)NC(=O)[C@H](CCCCN)NC(=O)[C@H](CC(C)C)NC(=O)[C@H](CC(C)C)NC1=O [BPC160W, c(KLLLKWKKKQ)] (cyclo(KKKQKLLLKW))
## Output 3%

## Input Requested read-out: Hemolysis (%) at 50 µM. Entry: CC(C)C[C@@H]1NC(=O)[C@H](CCCCN)NC(=O)[C@H](CCCCN)NC(=O)[C@H](CCC(N)=O)NC(=O)[C@H](CC(C)C)NC(=O)[C@H](CC(C)C)NC(=O)[C@H](CCCCN)NC(=O)[C@H](Cc2c[nH]c3ccccc23)NC(=O)[C@H](CCCCN)NC(=O)[C@H](CCCCN)NC1=O [BPC064W, c(KKLKKWKLLQ)] (cyclo(KKLKKWKLLQ))
## Output 17%

## Input Name the reported Hemolysis (%) at 50 µM value associated with the compound CC(C)C[C@@H]1NC(=O)[C@H](CCC(N)=O)NC(=O)[C@H](CC(C)C)NC(=O)[C@H](CCCCN)NC(=O)[C@H](CCCCN)NC(=O)[C@H](Cc2c[nH]c3ccccc23)NC(=O)[C@H](CCCCN)NC(=O)[C@H](CCCCN)NC(=O)[C@H](CCCCN)NC(=O)[C@H](CCCCN)NC1=O [BPC190W, c(LKKKKWKKLQ)] (cyclo(KKKKWKKLQL))
## Output 1%

## Input Return reported Hemolysis (%) at 50 µM; argument: CC(C)C[C@@H]1NC(=O)[C@H](CCCCN)NC(=O)[C@H](CC(C)C)NC(=O)[C@H](Cc2c[nH]c3ccccc23)NC(=O)[C@H](CC(C)C)NC(=O)[C@H](CCCCN)NC(=O)[C@H](CCCCN)NC(=O)[C@H](CCCCN)NC(=O)[C@H](CCCCN)NC(=O)[C@H](CCC(N)=O)NC1=O [BPC070W, c(KKKKLWLKLQ)] (cyclo(KKKKLWLKLQ))
## Output 6%

## Input Hemolysis (%) at 50 µM lookup needed for CC(C)C[C@@H]1NC(=O)[C@H](CCC(N)=O)NC(=O)[C@H](CC(C)C)NC(=O)[C@H](CCCCN)NC(=O)[C@H](CC(C)C)NC(=O)[C@H](Cc2c[nH]c3ccccc23)NC(=O)[C@H](CCCCN)NC(=O)[C@H](CCCCN)NC(=O)[C@H](CCCCN)NC(=O)[C@H](CCCCN)NC1=O [BPC078W, c(LKKKKWLKLQ)] (cyclo(KKKKWLKLQL)) , thanks.
## Output 3%

## Input Find the recorded Hemolysis (%) at 50 µM belonging to CC(C)C[C@@H]1NC(=O)[C@H](Cc2c[nH]c3ccccc23)NC(=O)[C@H](CCCCN)NC(=O)[C@H](CCCCN)NC(=O)[C@H](CCCCN)NC(=O)[C@H](CCCCN)NC(=O)[C@H](CCCCN)NC(=O)[C@H](CCC(N)=O)NC(=O)[C@H](CC(C)C)NC(=O)[C@H](CC(C)C)NC1=O [BPC058W, c(KKKKKWLLLQ)] (cyclo(KKKKKWLLLQ)) and report it.
## Output 2%

## Input Give the measured Hemolysis (%) at 50 µM of CC(C)C[C@@H]1NC(=O)[C@H](CCCCN)NC(=O)[C@H](CCCCN)NC(=O)[C@H](Cc2c[nH]c3ccccc23)NC(=O)[C@H](CCCCN)NC(=O)[C@H](CCCCN)NC(=O)[C@H](CCCCN)NC(=O)[C@H](CC(C)C)NC(=O)[C@H](CC(C)C)NC(=O)[C@H](CCC(N)=O)NC1=O [BPC098W, c(LLKKKWKKLQ)] (cyclo(KKKWKKLQLL)) .
## Output 12%

## Input Fill in the blank: the reported Hemolysis (%) at 50 µM of CC(C)C[C@@H]1NC(=O)[C@H](CCCCN)NC(=O)[C@H](CCCCN)NC(=O)[C@H](Cc2c[nH]c3ccccc23)NC(=O)[C@H](CCCCN)NC(=O)[C@H](CC(C)C)NC(=O)[C@H](CCCCN)NC(=O)[C@H](CC(C)C)NC(=O)[C@H](CCCCN)NC(=O)[C@H](CCC(N)=O)NC1=O [BPC090W, c(KLKLKWKKLQ)] (cyclo(KKLQKLKLKW)) is ____.
## Output 9%

## Input What does the record list as Hemolysis (%) at 50 µM for CC(C)C[C@@H]1NC(=O)[C@H](CCCCN)NC(=O)[C@H](CCC(N)=O)NC(=O)[C@H](CCCCN)NC(=O)[C@H](CCCCN)NC(=O)[C@H](CC(C)C)NC(=O)[C@H](Cc2c[nH]c3ccccc23)NC(=O)[C@H](CC(C)C)NC(=O)[C@H](CCCCN)NC(=O)[C@H](CCCCN)NC1=O [BPC132W, c(KLKKLWLKKQ)] (cyclo(KKLWLKKQKL)) ?
## Output 5%
